Please provide measured TGI for the entries that follow.
tested on: HS 578T breast; assay: NCI tumour cell line growth inhibition, 48 h

Answer with the recorded TGI of S=C1Cc2c(-c3ccccc3)cc(-c3cccc(Cl)c3)nc2-c2ccccc2N1 only.
6.12 µM

Answer with the recorded TGI of COc1cc(OC)c(OC)cc1/C=C/c1nc2ccccc2s1 only.
> 100 µM

Answer with the recorded TGI of O=C(c1ccc(Cl)cc1)N(C(=O)N1CCCCC1)c1ccccc1 only.
> 100 µM

Answer with the recorded TGI of O=C1c2ccccc2C(=O)c2c(NC3CCCCC3)ccc(Nc3ccc(S(=O)(=O)O)cc3)c21 only.
> 100 µM

Answer with the recorded TGI of COc1ccc(-c2[nH]c3ccc(OC)cc3c2C=C(C#N)C#N)cc1 only.
> 100 µM

----------
Please provide measured TGI for the entries that follow.
tested on: SF-268 CNS; assay: NCI tumour cell line growth inhibition, 48 h

Would you please give the reported TGI of CCCCCCCCCCCC[C@@H](O)[C@H]1CC[C@H]([C@H](O)CC[C@H](O)[C@@H]2CC[C@@H](CCCCCCCC3=C[C@H](C)OC3=O)O2)O1 with SF-268 CNS?
> 50 µM

Would you please give the reported TGI of CCN(CC)CCNc1ccc2ncn3c4ccc(O)cc4c(=O)c1c23 with SF-268 CNS?
13.6 µM

Would you please give the reported TGI of O=c1[nH]c2[nH]c(=S)[nH]c(=S)c2[nH]1 with SF-268 CNS?
> 100 µM

Would you please give the reported TGI of c1ccc(COC[C@H]2O[C@@H](c3ccccc3)C[C@@H](OCc3ccccc3)C2OCc2ccccc2)cc1 (stereo not given in full) with SF-268 CNS?
> 10 µM

Would you please give the reported TGI of COC1(OC)CCc2c(sc3ncnc(Nc4cccc(Br)c4)c23)C1 with SF-268 CNS?
> 100 µM

----------
Please provide measured TGI for the entries that follow.
test system: SNB-75 CNS; experiment: NCI tumour cell line growth inhibition, 48 h

Would you please give the reported TGI of C=CCNC(=O)C(C)C1CCC2(C)C=CC(=O)C(C)=C2C1O (stereo not given) with SNB-75 CNS?
> 100 µM

Would you please give the reported TGI of CN(C)c1ccc(-c2cc(-c3ccc(Nc4nc(Nc5ccc(Cl)cc5)nc(Nc5ccc(Cl)cc5)n4)cc3)nc(N)c2C#N)cc1 with SNB-75 CNS?
> 100 µM

Would you please give the reported TGI of Cc1cc(Cl)nc(N(CCNc2ccnc3cc(Cl)ccc23)Cc2ccco2)n1 with SNB-75 CNS?
4.18 µM

Would you please give the reported TGI of O=C(O)CN(CCN(CC(=O)O)CC(=O)O)CC(=O)O.[Mn+2] with SNB-75 CNS?
> 100 µM

Would you please give the reported TGI of Cc1cc(Br)c(NC(=O)c2c(-c3c(Cl)cccc3Cl)noc2C)c(Br)c1 with SNB-75 CNS?
> 100 µM

Would you please give the reported TGI of Cc1nc2sc3cccc(Cl)c3n2c(=O)c1N=Nc1ccc(Cl)cc1 with SNB-75 CNS?
> 100 µM

Would you please give the reported TGI of OC(c1ccccc1Br)(c1ccccc1Br)C(F)(F)F with SNB-75 CNS?
85.2 µM

Would you please give the reported TGI of COc1ccc(OC)c2sc(N3C(=O)/C(=C/c4cccc(Oc5ccccc5)c4)N=C3c3ccccc3)nc12 with SNB-75 CNS?
> 100 µM

Would you please give the reported TGI of O=C1c2ccccc2C(=O)c2c(NC3CCCCC3)ccc(Nc3ccc(S(=O)(=O)O)cc3)c21 with SNB-75 CNS?
> 100 µM

Would you please give the reported TGI of C#Cc1ccc(-n2c(/C=C/c3ccc(O)cc3)nc3ncccc3c2=O)cc1 with SNB-75 CNS?
32.5 µM

Would you please give the reported TGI of CCSCC1CC(O)(c2ccccc2)C(c2ccccc2)C(c2ccc(F)cc2)O1 (stereo not given) with SNB-75 CNS?
3.67 µM

Would you please give the reported TGI of Cc1ccc(S(=O)(=O)NCCCCC(N)C(=O)O)cc1 (stereo not given) with SNB-75 CNS?
> 100 µM

Would you please give the reported TGI of C=C(CN1CCc2[nH]c3ccc(F)cc3c2C1)c1ccc(C(=O)Nc2ccccc2N)cc1 with SNB-75 CNS?
7.4 µM

Would you please give the reported TGI of CC(C)(C)OC(=O)N(CCCCNC(=O)C(F)(F)F)CCCNC(=O)C(F)(F)F with SNB-75 CNS?
> 100 µM

Would you please give the reported TGI of O=C(Nc1ccc(OC(F)(F)Cl)cc1)c1cnc(N2CC[C@@H](O)C2)c(-c2ccn[nH]2)c1 with SNB-75 CNS?
26.5 µM

Would you please give the reported TGI of CCN(/C=C1/C(=O)C(c2ccccc2)N(c2ccccc2)C1=O)CC (stereo not given) with SNB-75 CNS?
> 10 µM

Would you please give the reported TGI of CC(=O)Nc1ccc(C2CC(c3ccc([N+](=O)[O-])cc3)=Nc3ccccc3S2=O)cc1 (stereo not given) with SNB-75 CNS?
> 100 µM

Would you please give the reported TGI of CN1CCN(c2c(F)cc(NC3=C(Cl)C(=O)c4ncccc4C3=O)cc2F)CC1 with SNB-75 CNS?
23.9 µM

Would you please give the reported TGI of C1CSCCSCCCS[C@@H]2CCCCC2SC1 (stereo not given in full) with SNB-75 CNS?
> 100 µM

Would you please give the reported TGI of CCCCCCCCCCCCCCCCCCNc1ccn(C2OC(COP(=O)(O)OCC3OC(n4ccc(N)nc4=O)C(O)C3O)C(O)C2O)c(=O)n1 (stereo not given) with SNB-75 CNS?
> 100 µM
